TESTED SYSTEM: human melanocortin-4 receptor (MC-4R) (Homo sapiens, UniProt P32245)
Construct: expressed in transfected cells; host or cells: HEK293
Sequence (P32245 whole entry): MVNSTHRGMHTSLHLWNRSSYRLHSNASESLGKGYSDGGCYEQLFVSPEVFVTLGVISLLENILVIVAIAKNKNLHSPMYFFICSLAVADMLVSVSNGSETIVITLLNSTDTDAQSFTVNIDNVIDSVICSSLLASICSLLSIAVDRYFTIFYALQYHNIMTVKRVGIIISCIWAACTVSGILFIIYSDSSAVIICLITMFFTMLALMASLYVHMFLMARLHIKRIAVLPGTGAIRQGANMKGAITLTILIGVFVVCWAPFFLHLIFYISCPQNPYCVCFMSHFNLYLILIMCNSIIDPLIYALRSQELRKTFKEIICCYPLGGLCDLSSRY
PROTOCOL: Functional assay: agonistic activity, cAMP production in membrane preparations compared with NDP-alpha-MSH, fluorescence polarization
Type: biochemical
ASSAY SETUP: cAMP produced compared to stimulation with NDP-alpha-MSH; read-out: % activation functional assay
MEASURE NAME: Emax (%)

Examples with answers:
{"COMPOUND STRUCTURE STRING": "Cc1ccc(C2CCN(C(=O)[C@@H](Cc3ccc(F)cc3Cl)NC(=O)N3CCCC3)CC2)c(N2CCN(C)CC2)n1", "OBSERVED": 0}
{"COMPOUND STRUCTURE STRING": "Cc1ccc(C2CCN(C(=O)[C@@H](Cc3ccc(Cl)cc3Cl)NC(=O)N3CCCC3)CC2)c(N(C)CCN2CCCC2)n1", "OBSERVED": 0}
{"COMPOUND STRUCTURE STRING": "CN1CCO[C@@H](COc2cccnc2C2CCN(C(=O)[C@@H](Cc3ccc(Cl)cc3Cl)NC(=O)N3CCCC3)CC2)C1", "OBSERVED": 1}
{"COMPOUND STRUCTURE STRING": "CC[C@H](COc1cccnc1C1CCN(C(=O)[C@@H](Cc2ccc(Cl)cc2Cl)NC(=O)N2CC[C@H]2CO)CC1)N(C)C", "OBSERVED": -3}

I: CC[C@H](COc1cccnc1C1CCN(C(=O)[C@@H](Cc2ccc(Cl)cc2Cl)NC(=O)N2CCC[C@H]2C(C)(C)O)CC1)N(C)C
II: Cc1ccc(C2CCN(C(=O)[C@@H](Cc3ccc(F)cc3F)NC(=O)N3CCCC3)CC2)c(N2CCN(C)CC2)n1
III: CN1CCC[C@H](Oc2cccnc2C2CCN(C(=O)[C@@H](Cc3ccc(Cl)cc3Cl)NC(=O)N3CC[C@@H](O)C3)CC2)C1
Sort (3 molecules) by Emax: min first. Write out the labels following the order that was asked for.
I, III, II

====

TESTED SYSTEM: human melanocortin-4 receptor (MC-4R) (Homo sapiens, UniProt P32245)
Construct: expressed in transfected cells; host or cells: HEK293
PROTOCOL: Functional assay: agonistic activity, cAMP production in membrane preparations compared with NDP-alpha-MSH, fluorescence polarization
Assay type: biochemical
ASSAY SETUP: cAMP produced compared to stimulation with NDP-alpha-MSH; read-out: % activation functional assay
MEASURE NAME: Emax (%)

{"MOLECULE": "CC[C@H](COc1cccnc1C1CCN(C(=O)[C@@H](Cc2ccc(Cl)cc2Cl)NC(=O)N2CCC(O)(CC3CC3)C2)CC1)N(C)C (stereo partly drawn)", "UNITS SYMBOL": "%", "OBSERVED": -2}

P: CC[C@H](COc1cccnc1C1CCN(C(=O)[C@@H](Cc2ccc(Cl)cc2Cl)NC(=O)N2CC(OC)C2)CC1)N1CCCC1
Q: CC[C@H](COc1cccnc1C1CCN(C(=O)[C@@H](Cc2ccc(Cl)cc2Cl)NC(=O)N2CC(O)(C(C)C)C2)CC1)N(C)C
Between P and Q , which one shows the smaller Emax number? Write down the label attached to your selection.
Q
(Q: 0%, P: 13%)

====

Record type: IC50 measurement. Applies to: human melanocortin-4 receptor (MC-4R) (Homo sapiens, UniProt P32245)

Worked examples, 6 molecules total:
{"COMPOUND STRUCTURE STRING": "CC[C@@H](CN1CCCC1)Oc1ncc(C)cc1C1CCN(C(=O)[C@@H](Cc2ccc(Cl)cc2Cl)NC(=O)N2CCCC2)CC1", "IC50": "≤ 0.1 µM"}
{"COMPOUND STRUCTURE STRING": "CN1CC[C@@H](Oc2cccnc2C2CCN(C(=O)[C@@H](Cc3ccc(Cl)cc3Cl)NC(=O)N3CCCC3)CC2)C1", "IC50": "0.1 to 1 µM"}
{"COMPOUND STRUCTURE STRING": "CC[C@H]1CN(C)CCN1Cc1cccnc1C1CCN(C(=O)[C@@H](Cc2ccc(Cl)cc2Cl)NC(=O)N2CCCC2)CC1", "IC50": "≤ 0.1 µM"}
{"COMPOUND STRUCTURE STRING": "O=C(N[C@H](Cc1ccc(Cl)cc1Cl)C(=O)N1CCC(c2ncccc2OCCN2CCCC2)CC1)N1CCCC1", "IC50": "0.1 to 1 µM"}
{"COMPOUND STRUCTURE STRING": "Cc1ccc(C2CCN(C(=O)[C@@H](Cc3ccc(F)cc3Cl)NC(=O)N3CCCC3)CC2)c(N2CCN(C)CC2)n1", "IC50": "0.1 to 1 µM"}
{"COMPOUND STRUCTURE STRING": "Cc1ccc(C2CCN(C(=O)[C@@H](Cc3ccc(F)cc3F)NC(=O)N3CCCC3)CC2)c(N2CCN(C)CC2)n1", "IC50": "> 1 µM"}

// below: IC50 requested for another molecule
Field: IC50 (human melanocortin-4 receptor (MC-4R) (Homo sapiens, UniProt P32245)). Entry: CC[C@H](COc1cccnc1C1CCN(C(=O)[C@@H](Cc2ccc(Cl)cc2Cl)NC(=O)N2CCOC[C@@H]2C)CC1)N1CCCC1
≤ 0.1 µM

====

TESTED SYSTEM: human melanocortin-4 receptor (MC-4R) (Homo sapiens)
Construct: expressed in transfected cells; host or cells: HEK293
PROTOCOL: Functional assay: agonistic activity, cAMP production in membrane preparations compared with NDP-alpha-MSH, fluorescence polarization
Assay type: biochemical
ASSAY SETUP: cAMP produced compared to stimulation with NDP-alpha-MSH; read-out: % activation functional assay
MEASURE NAME: Emax (%)

A: CC[C@H](COc1cccnc1C1CCN(C(=O)[C@@H](Cc2ccc(Cl)cc2Cl)NC(=O)N2CC[C@@H](N(C)C)C2)CC1)N(C)C
B: Cc1ccc(C2CCN(C(=O)[C@@H](Cc3ccc(Cl)cc3F)NC(=O)N3CCCC3)CC2)c(N2CCN(C)CC2)n1
C: C#CC1(O)CN(C(=O)N[C@H](Cc2ccc(Cl)cc2Cl)C(=O)N2CCC(c3ncccc3OC[C@@H](CC)N(C)C)CC2)C1
Please order the records by their reported Emax, lowest number first. Labels, ranked as asked.
A, B, C

====

TESTED SYSTEM: human melanocortin-4 receptor (MC-4R) (Homo sapiens)
Construct: expressed in transfected cells; host or cells: HEK293
PROTOCOL: Functional assay: agonistic activity, cAMP production in membrane preparations compared with NDP-alpha-MSH, fluorescence polarization
Assay type: biochemical
ASSAY SETUP: cAMP produced compared to stimulation with NDP-alpha-MSH; read-out: % activation functional assay
MEASURE NAME: Emax (%)

Worked cases, answers included:
{"COMPOUND STRUCTURE STRING": "CN(C)C(C)(C)COc1cccnc1C1CCN(C(=O)[C@@H](Cc2ccc(Cl)cc2Cl)NC(=O)N2CCCC2)CC1", "UNITS SYMBOL": "%", "OBSERVED": 0}
{"COMPOUND STRUCTURE STRING": "CC[C@H](COc1cccnc1C1CCN(C(=O)[C@@H](Cc2ccc(Cl)cc2Cl)NC(=O)N2CC[C@H](F)C2)CC1)N1CCCC1", "UNITS SYMBOL": "%", "OBSERVED": 0}

P: CC[C@H](COc1cccnc1C1CCN(C(=O)[C@@H](Cc2ccc(Cl)cc2Cl)NC(=O)N2CCC(F)CC2)CC1)N1CCCC1
Q: CC[C@@H](CN(C)C)Oc1cccnc1C1CCN(C(=O)[C@@H](Cc2ccc(Cl)cc2Cl)NC(=O)N2CC[C@H](O)C2)CC1
Short answer wanted: higher Emax, P or Q ? Respond using the label that marks the chosen record.
Q
(Q: 8%, P: 0%)

====

pIC50: −log10 of the molar value.
Here we list compounds with their recorded pIC50 when tested on UniProt:P32245.

{"COMPOUND": "O=C(N[C@H](Cc1ccc(Cl)cc1Cl)C(=O)N1CCC(c2ncccc2O[C@H]2CN3CCC2CC3)CC1)N1CCCC1", "TESTED SYSTEM": "UniProt:P32245", "pIC50": "6.00 to 7.00"}
{"COMPOUND": "COCCN(C)C(=O)N[C@H](Cc1ccc(Cl)cc1Cl)C(=O)N1CCC(c2ncccc2O[C@H]2CCCN(C)C2)CC1", "TESTED SYSTEM": "UniProt:P32245", "pIC50": "≥ 7.00"}
{"COMPOUND": "CN1CCC[C@H](Oc2cccnc2C2CCN(C(=O)[C@@H](Cc3ccc(Cl)cc3Cl)NC(=O)N3CC[C@@H](O)C3)CC2)C1", "TESTED SYSTEM": "UniProt:P32245", "pIC50": "≥ 7.00"}
{"COMPOUND": "CC[C@H](COc1c(C)ccnc1C1CCN(C(=O)[C@@H](Cc2ccc(Cl)cc2Cl)NC(=O)N2CCCC2)CC1)N(C)C", "TESTED SYSTEM": "UniProt:P32245", "pIC50": "6.00 to 7.00"}
{"COMPOUND": "CC[C@H](COc1cccnc1C1CCN(C(=O)[C@@H](Cc2ccc(Cl)cc2Cl)NC(=O)N2CC[C@H](CO)C2)CC1)N(C)C", "TESTED SYSTEM": "UniProt:P32245", "pIC50": "≥ 7.00"}

Given the entry CC[C@H](COc1cccnc1C1CCN(C(=O)[C@@H](Cc2ccc(Cl)cc2Cl)NC(=O)N2CCCO2)CC1)N1CCCC1 , report its measured pIC50.
≥ 7.00

Sample CC[C@@H](CN1CCCC1)Oc1ccncc1C1CCN(C(=O)[C@@H](Cc2ccc(Cl)cc2Cl)NC(=O)N2CCCC2)CC1 — what was its pIC50?
≥ 7.00
